- Study Target: Human plasma kallikrein (Homo sapiens (Human), UniProt P03952)
- Sequence (P03952 391-638): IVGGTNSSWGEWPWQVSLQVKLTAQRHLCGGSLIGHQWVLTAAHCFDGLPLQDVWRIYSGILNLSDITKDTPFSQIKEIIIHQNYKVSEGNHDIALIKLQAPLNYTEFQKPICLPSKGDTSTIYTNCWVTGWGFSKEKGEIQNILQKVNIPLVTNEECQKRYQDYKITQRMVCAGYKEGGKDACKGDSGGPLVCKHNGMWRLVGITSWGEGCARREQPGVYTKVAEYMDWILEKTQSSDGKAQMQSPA
- Sequence (P03952 20-390 partner): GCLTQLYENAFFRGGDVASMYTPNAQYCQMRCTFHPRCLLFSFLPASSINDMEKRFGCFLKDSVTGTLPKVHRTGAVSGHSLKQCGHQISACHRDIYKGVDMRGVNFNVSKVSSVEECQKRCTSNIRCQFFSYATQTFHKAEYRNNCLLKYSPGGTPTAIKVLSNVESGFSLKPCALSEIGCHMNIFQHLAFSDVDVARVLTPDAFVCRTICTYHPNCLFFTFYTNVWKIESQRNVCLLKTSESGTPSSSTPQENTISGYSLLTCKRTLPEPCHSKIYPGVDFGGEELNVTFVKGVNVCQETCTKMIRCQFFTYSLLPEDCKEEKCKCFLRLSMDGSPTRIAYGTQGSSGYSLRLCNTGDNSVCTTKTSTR
- Procedure Text: Kallikrein Assay (fluorogenic substrate Acetyl-K-P-R-AFC)
- Test Settings: Plasma Kallikrein (PKal)
Measured pIC50, listed per entry for reference.
Value format note: pIC50 is -log10 of concentration (mol/L); just state the number.

Worked examples, 3 compounds total:
Compound | Test Readout | Measurement
Cc1ncc(-c2c(C(F)F)ccc(Cl)c2F)nc1C(=O)Nc1cnn(C(C)c2cnc(N3C[C@H]4C[C@H]4C3=O)c(F)c2)c1 (single isomer, unassigned) [Example 52] | pIC50 | 8.96
CC(c1cnc(N2CC3CC3C2=O)nc1)n1cc(NC(=O)c2cncc(-c3c(C(F)(F)F)ccc(Cl)c3F)n2)cn1 (single isomer, unassigned) | pIC50 | 7.73
Cc1nc(N2C[C@H]3C[C@H]3C2=O)ncc1C1(n2cc(NC(=O)c3nc(-c4c(C(F)F)ccc(Cl)c4F)cnc3C)cn2)CCC1 | pIC50 | 8.19

Reported pIC50 for Human plasma kallikrein (Homo sapiens (Human), UniProt P03952), given Cc1cc(C(C)n2cc(NC(=O)c3nc(-c4c(C(F)F)ccc(Cl)c4F)cnc3C(C)O)cn2)cnc1N1C[C@H]2C[C@H]2C1=O (single isomer, unassigned) [Example 212] ?
9.00

Item: Cc1cc(C(C)n2cc(NC(=O)c3nc(-c4c(C(F)F)ccc(Cl)c4F)cnc3CO)cn2)cnc1N1C[C@H]2C[C@H]2C1=O (single isomer, unassigned) [Example 200]
9.70

Same question for "C[C@@H](c1cnc(N2C[C@H]3C[C@H]3C2=O)nc1)n1cc(NC(=O)c2nc(-c3c(C(F)F)ccc(Cl)c3F)cnc2C(C)(C)O)cn1" please.
7.43

----------
human Factor XIa (Homo sapiens (Human)) measurements of IC50, listed per entry.
Sequence (P03951 388-625 limits assumed): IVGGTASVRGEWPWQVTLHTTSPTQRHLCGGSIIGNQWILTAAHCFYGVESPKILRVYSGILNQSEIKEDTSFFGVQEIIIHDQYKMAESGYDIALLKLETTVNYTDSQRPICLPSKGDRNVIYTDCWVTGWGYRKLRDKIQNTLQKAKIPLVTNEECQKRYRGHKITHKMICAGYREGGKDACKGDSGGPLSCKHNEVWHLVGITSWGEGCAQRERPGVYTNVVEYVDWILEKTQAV
Sequence (P03951 19-387 partner limits assumed): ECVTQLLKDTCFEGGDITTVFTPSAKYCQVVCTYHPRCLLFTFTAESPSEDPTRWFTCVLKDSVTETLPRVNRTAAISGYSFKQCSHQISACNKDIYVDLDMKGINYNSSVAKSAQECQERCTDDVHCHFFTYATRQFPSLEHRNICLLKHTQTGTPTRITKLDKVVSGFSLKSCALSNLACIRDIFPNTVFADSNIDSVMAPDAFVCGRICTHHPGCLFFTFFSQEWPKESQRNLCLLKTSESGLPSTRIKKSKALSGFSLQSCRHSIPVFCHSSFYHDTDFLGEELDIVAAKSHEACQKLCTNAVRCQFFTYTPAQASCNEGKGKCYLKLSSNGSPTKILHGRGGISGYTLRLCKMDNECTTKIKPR

Returns the measured IC50 for the input molecule. Input: CC(c1cnc(N2CCN(C)C2=O)nc1)n1cc(NC(=O)c2cncc(-c3c(C(F)F)ccc(Cl)c3F)n2)cn1 (racemic)
> 10 µM

And the next one, "Cc1nc(Cn2cc(NC(=O)c3nc(-c4c(C(F)F)ccc(Cl)c4F)cnc3C)cn2)ncc1N1C[C@H]2C[C@H]2C1=O" ?
> 10 µM

Check CC(c1ncc(N2C[C@H]3C[C@H]3C2=O)cc1F)n1cc(NC(=O)c2cncc(-c3c(C(F)F)ccc(Cl)c3F)n2)cn1 (single isomer, unassigned) too.
> 10 µM

----------
- Study Target: Human plasma kallikrein (Homo sapiens (Human), UniProt P03952)
- Procedure Text: Kallikrein Assay (fluorogenic substrate Acetyl-K-P-R-AFC)
- Test Settings: Plasma Kallikrein (PKal)
This section presents compounds with their documented IC50 values.
Numbers only; they are read as nM.

Compound | Endpoint Unit | IC50
C[C@@H](c1cnc(N2C[C@H]3C[C@H]3C2=O)nc1)n1cc(NC(=O)c2cncc(-c3c(C(F)F)ccc(Cl)c3F)n2)cn1 [Example 172] | nM | 6.4
CC(c1ccc(N2C[C@H]3C[C@H]3C2=O)cc1)n1cc(NC(=O)c2cncc(-c3c(C(F)F)ccc(Cl)c3F)n2)cn1 (mixture of isomers) [Example 69] | nM | 10
Cc1nc(N2C[C@H]3C[C@H]3C2=O)ncc1[C@@H](CO)n1cc(NC(=O)c2cncc(-c3c(C(F)F)ccc(Cl)c3F)n2)cn1 [Example 159] | nM | 11.2
Cc1cc([C@@H](C)n2cc(NC(=O)c3cncc(-c4c(C(F)F)ccc(Cl)c4F)n3)cn2)nnc1N1C[C@H]2C[C@H]2C1=O [Example 38] | nM | 6.2
COCc1ncc(-c2c(C(F)F)ccc(Cl)c2F)nc1C(=O)Nc1cnn(C2(c3cnc(N4C[C@H]5C[C@H]5C4=O)c(C)n3)CC2)c1 [Example 221] | nM | 14.9
CC(c1cnc(N2C[C@H]3C[C@H]3C2=S)nc1)n1cc(NC(=O)c2cncc(-c3c(C(F)F)ccc(Cl)c3F)n2)cn1 (single isomer, unassigned) [Example 32] | nM | 16.4

What does the record list as IC50 for Cc1ccc(Cl)c(F)c1-c1cncc(C(=O)Nc2cnn(C(C)c3cnc(N4C[C@H]5C[C@H]5C4=O)nc3C)c2)n1 (single isomer, unassigned) [Example 108] ?
16.6

Same read-out for Cc1ncc(-c2c(C(F)F)ccc(Cl)c2F)nc1C(=O)Nc1cnn(C(C)c2cnc(N3C[C@H]4C[C@H]4C3=O)nc2)c1 (single isomer, unassigned) [Example 29] ?
9.6

And then CC(c1cnc(N2C[C@H]3C[C@H]3C2=S)nc1)n1cc(NC(=O)c2cncc(-c3c(C(F)F)ccc(Cl)c3F)n2)cn1 (single isomer, unassigned) [Example 31] , what is it?
6.3
